tested on: primary human hepatocytes (PHH); assay: Cytotoxicity (cellular ATP, CellTiter-Glo) in 2D plated primary human hepatocytes, 48 h treatment; assay type: cell-based; conditions: PHH 48 h;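 also: 384-well plates, luminescence read-out, normalized to vehicle wells with 1% DMSO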

{"COMPOUND": "CN1[C@@H]2CC[C@H]1C[C@@H](OC(c1ccccc1)c1ccccc1)C2 [Benztropine]", "classification at 50× MOS threshold": "false positive"}
{"COMPOUND": "OC(CCN1CCCC1)(c1ccccc1)C1CCCCC1 (stereo not shown) [Procyclidine]", "classification at 50× MOS threshold": "false positive"}
{"COMPOUND": "C[C@H]1O[C@@H](O[C@H]2[C@@H](O)C[C@H](O[C@H]3[C@@H](O)C[C@H](O[C@H]4CC[C@@]5(C)[C@H](CC[C@@H]6[C@@H]5C[C@@H](O)[C@]5(C)[C@@H](C7=CC(=O)OC7)CC[C@]65O)C4)O[C@@H]3C)O[C@@H]2C)C[C@H](O)[C@@H]1O [Digoxin]", "classification at 50× MOS threshold": "false positive"}
